Values compiled from BindingDB's records for doi:10.1007/s10822-022-00478-x.

pIC50: −log10 of the molar value.
Test system cAMP and cAMP-inhibited cGMP 3',5'-cyclic phosphodiesterase 10A (Homo sapiens), pIC50 listed for each of the compounds.
ENDPOINT NAME: pIC50

# COMPOUND, ENDPOINT NAME, EXPERIMENTAL RESULT
rows = [
    ("Cc1c(C(F)(F)F)nc2ccc(C#Cc3nc(-c4ccccc4)cn3C)nn12 [Roche-Dataset for PDE10A, Compound 106]", "pIC50", 8.73),
    ("CS(=O)(=O)c1ccc(CNC(=O)c2nc(C3CC3)cnc2Nc2cncnc2)cc1 [Roche-Dataset for PDE10A, Compound 800]", "pIC50", 6.26),
    ("Cn1c(Cl)nc(C(=O)N2CCC2)c1C(=O)Nc1ccn2nc(-c3ccccc3)nc2c1 [Roche-Dataset for PDE10A, Compound 115]", "pIC50", 9.35),
    ("Cn1nc(N2CCCC2)nc1CCc1nc2c(F)cc(F)cn2n1 [Roche-Dataset for PDE10A, Compound 407]", "pIC50", 6.20),
    ("COCCN(C)C(=O)c1cnn(C)c1C(=O)Nc1ccn2cc(-c3cccc(OCCCF)c3)nc2n1 [Roche-Dataset for PDE10A, Compound 3]", "pIC50", 7.82),
    ("O=C(Nc1ccn2nc(-c3ccccc3)nc2c1)c1cc(Cl)nc(N2CCCC2)c1 [Roche-Dataset for PDE10A, Compound 132]", "pIC50", 7.32),
    ("O=C(c1nc(C2CC2)cnc1Nc1cncnc1)N1CCN(Cc2ccccc2)CC1 [Roche-Dataset for PDE10A, Compound 1008]", "pIC50", 6.43),
    ("Cc1nc(C)n2nc(/C=C/c3nc(N4CCCC4)nn3C)nc2c1Cl [Roche-Dataset for PDE10A, Compound 382]", "pIC50", 7.62),
]

I: CC(=O)Nc1cccc(NC(=O)c2nc(C3CC3)cnc2Nc2cncnc2)n1 [Roche-Dataset for PDE10A, Compound 1084]
II: Cn1cc(-c2cccc(CCc3nc(-c4ccccc4)cn3C)n2)cn1 [Roche-Dataset for PDE10A, Compound 296]
III: O=C(Nc1cccc(N2CCCC2)c1)c1nc(C2CC2)cnc1Nc1cncnc1 [Roche-Dataset for PDE10A, Compound 793]
IV: C[C@@H](NC(=O)c1ccc(NC(=O)c2nc(C3CC3)ccc2Nc2cncnc2)s1)c1ccccc1 [Roche-Dataset for PDE10A, Compound 563]
V: CN(C)C(=O)c1cnn(C)c1C(=O)Nc1cc2nc(-c3ccccc3)nn2cn1 [Roche-Dataset for PDE10A, Compound 442]
Sort the 5 compounds by pIC50; largest first, smallest last. Answer format: the labels, ordered as requested.
V, I, III, IV, II
(V: 9.09, I: 7.60, III: 6.88, IV: 6.49, II: 5.19)
